Target: Tumour suppressor protein p53/Mdm4 (Homo sapiens, UniProt O15151+P04637)
Sequence (O15151 whole entry, one chain of several): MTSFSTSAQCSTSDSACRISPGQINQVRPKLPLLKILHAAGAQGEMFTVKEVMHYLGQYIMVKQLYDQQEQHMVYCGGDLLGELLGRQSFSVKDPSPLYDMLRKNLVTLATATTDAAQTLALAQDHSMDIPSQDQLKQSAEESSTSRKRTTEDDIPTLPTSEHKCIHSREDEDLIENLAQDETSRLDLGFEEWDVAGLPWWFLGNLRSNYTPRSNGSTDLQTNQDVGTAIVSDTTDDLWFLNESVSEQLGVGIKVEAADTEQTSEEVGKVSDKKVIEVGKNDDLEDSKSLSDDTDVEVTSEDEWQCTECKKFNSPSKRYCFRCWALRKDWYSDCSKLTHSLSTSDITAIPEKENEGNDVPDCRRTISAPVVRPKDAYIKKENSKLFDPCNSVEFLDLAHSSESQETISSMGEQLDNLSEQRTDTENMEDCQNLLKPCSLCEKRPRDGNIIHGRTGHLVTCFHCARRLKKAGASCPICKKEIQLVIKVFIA
Assay: Inhibition of MDM4/p53 interaction in human SH-SY5Y cells preincubated for 10 mins under shaking condition and measured after 1.5 hrs by immuno-enzymatic assay
recorded-metric: pIC50
Expect pIC50 as a plain number equal to -log10 of the molar concentration.

Prompt: For the compound O=C1Nc2ccc(Br)cc2C12C(c1ccccc1)C(c1ccccc1)=NN2c1ccccc1 (stereo unspecified) , give its measured pIC50 value.
Response: 6.53

====

Target: Tumour suppressor p53/oncoprotein Mdm2 (Homo sapiens, UniProt P04637+Q00987)
Sequence (P04637 whole entry): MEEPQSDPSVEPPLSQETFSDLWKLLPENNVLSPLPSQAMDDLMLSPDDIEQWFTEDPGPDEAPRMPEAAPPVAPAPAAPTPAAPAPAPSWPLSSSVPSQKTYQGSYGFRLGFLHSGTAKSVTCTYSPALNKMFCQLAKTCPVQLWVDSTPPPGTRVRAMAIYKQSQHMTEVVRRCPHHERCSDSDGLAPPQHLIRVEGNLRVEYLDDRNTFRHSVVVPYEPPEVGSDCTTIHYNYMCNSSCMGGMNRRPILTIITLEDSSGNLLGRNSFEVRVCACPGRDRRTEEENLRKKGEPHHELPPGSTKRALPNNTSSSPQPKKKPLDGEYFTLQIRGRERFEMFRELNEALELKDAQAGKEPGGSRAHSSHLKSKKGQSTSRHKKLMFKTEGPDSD
Sequence (Q00987 whole entry): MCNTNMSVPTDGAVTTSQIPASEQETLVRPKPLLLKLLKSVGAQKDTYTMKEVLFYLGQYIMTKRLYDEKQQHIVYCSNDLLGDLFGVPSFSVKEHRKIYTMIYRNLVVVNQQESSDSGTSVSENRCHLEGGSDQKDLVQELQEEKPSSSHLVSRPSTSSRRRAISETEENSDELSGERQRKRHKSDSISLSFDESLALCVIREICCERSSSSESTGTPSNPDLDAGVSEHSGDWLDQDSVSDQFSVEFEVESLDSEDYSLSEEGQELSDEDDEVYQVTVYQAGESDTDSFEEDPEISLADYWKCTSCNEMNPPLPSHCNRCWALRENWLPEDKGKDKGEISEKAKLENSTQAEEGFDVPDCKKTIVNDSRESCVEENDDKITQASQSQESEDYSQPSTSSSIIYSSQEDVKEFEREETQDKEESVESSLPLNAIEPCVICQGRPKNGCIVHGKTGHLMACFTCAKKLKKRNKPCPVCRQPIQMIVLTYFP
Assay: Inhibition of MDM2/p53 interaction in human U-87 MG cells preincubated for 10 mins under shaking condition and measured after 1.5 hrs by immuno-enzymatic assay
recorded-metric: pIC50
Scale: pIC50 equals -log10([C]), with [C] in mol/L.

Prompt: For O=C1Nc2ccc(Br)cc2C12C(c1ccccc1)C(c1ccccc1)=NN2c1ccccc1 (stereo unspecified) , write its pIC50.
Response: 6.84
